Target: SWI/SNF-related matrix-associated actin-dependent regulator of chromatin subfamily A member 2 (Homo sapiens)
Sequence (P51531 whole entry, the tested form may be a part): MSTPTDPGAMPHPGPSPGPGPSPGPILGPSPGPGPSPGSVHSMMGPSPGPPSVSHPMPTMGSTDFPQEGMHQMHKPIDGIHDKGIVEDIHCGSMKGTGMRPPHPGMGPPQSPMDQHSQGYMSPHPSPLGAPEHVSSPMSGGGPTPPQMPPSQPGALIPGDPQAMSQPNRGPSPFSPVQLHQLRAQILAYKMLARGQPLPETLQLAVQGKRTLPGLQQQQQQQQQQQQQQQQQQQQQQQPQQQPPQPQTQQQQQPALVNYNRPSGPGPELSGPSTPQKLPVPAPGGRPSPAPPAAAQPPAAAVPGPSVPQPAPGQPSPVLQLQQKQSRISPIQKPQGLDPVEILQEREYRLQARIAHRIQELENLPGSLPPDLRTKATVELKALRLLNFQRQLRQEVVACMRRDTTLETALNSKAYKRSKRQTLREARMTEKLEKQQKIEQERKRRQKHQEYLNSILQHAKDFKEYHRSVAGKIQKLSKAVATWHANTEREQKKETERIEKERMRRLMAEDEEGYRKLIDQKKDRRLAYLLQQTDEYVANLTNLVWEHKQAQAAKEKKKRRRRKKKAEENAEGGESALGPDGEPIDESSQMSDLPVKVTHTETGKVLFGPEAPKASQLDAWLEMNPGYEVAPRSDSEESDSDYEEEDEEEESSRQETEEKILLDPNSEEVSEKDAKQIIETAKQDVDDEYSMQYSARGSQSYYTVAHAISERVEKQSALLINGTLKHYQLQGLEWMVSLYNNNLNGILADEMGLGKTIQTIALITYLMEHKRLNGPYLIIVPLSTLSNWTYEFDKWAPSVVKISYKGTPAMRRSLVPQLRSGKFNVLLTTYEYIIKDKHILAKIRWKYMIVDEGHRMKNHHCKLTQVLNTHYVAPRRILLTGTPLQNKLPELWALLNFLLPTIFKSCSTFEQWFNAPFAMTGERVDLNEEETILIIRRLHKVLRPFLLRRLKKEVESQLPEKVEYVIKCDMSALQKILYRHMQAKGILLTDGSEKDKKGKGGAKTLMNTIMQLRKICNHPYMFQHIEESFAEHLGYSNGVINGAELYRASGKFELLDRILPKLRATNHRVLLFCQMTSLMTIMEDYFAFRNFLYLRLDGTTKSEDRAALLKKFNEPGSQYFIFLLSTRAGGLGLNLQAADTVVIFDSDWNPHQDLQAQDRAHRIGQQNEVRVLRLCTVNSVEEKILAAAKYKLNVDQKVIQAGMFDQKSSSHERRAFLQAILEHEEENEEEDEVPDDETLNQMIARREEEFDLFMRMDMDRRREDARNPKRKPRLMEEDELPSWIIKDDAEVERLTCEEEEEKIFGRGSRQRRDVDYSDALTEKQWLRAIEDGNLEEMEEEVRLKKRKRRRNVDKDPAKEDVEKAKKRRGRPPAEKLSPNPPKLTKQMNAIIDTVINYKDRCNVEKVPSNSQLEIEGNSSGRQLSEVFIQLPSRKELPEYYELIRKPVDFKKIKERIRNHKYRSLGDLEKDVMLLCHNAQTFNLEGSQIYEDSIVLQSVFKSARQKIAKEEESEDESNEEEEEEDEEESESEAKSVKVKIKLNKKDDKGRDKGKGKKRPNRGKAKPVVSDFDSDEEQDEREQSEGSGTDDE
Test: Inhibition of human SMARCA2 (S1377 to Q1486 residues) expressed in bacterial expression system by BROMOscan assay
Form field: IC50 (one value per entry).

- test smiles: "Cn1cc(-c2cc(S(C)(=O)=O)ccc2Oc2ccc(F)cc2F)c2cc[nH]c(=O)c21"
  value modifier: ">"
  IC50 (nM): 1000
- test smiles: "Cc1[nH]c(-c2cc(NS(C)(=O)=O)ccc2Oc2ccccc2)c2c1C(=O)CCC2"
  value modifier: "="
  IC50 (nM): 1000

----------
Molecular target: Histone acetyltransferase KAT2B (Homo sapiens)
Sequence (Q92831 whole entry, the tested form may be a part): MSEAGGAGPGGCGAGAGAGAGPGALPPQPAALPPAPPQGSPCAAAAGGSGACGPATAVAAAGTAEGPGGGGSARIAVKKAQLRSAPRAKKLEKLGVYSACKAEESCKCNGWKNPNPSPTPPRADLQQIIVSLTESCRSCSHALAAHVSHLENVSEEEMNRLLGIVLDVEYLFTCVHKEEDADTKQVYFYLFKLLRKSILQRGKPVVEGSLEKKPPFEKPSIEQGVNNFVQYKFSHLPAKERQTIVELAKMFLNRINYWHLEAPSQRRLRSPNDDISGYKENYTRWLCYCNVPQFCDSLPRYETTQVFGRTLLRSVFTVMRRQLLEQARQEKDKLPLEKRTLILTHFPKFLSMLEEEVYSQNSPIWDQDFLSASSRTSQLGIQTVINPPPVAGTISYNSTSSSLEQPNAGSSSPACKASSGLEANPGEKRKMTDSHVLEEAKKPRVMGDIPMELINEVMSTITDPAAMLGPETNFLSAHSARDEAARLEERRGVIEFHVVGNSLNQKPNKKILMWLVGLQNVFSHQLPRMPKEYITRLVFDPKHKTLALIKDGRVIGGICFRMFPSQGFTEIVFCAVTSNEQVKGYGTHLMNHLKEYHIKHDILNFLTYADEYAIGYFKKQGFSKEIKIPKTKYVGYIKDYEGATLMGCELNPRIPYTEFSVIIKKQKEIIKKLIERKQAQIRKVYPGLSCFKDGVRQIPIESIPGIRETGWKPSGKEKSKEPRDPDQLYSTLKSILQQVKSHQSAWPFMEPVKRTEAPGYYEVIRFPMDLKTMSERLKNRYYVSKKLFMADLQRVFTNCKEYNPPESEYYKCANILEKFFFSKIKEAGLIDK
Test: Inhibition of human PCAF (G715 to D831 residues) expressed in mammalian expression system by BROMOscan assay
pIC50: −log10 of the molar value.
readout kind: pIC50

- test smiles: "Cc1[nH]c(-c2cc(NS(C)(=O)=O)ccc2Oc2ccccc2)c2c1C(=O)CCC2"
  result: "< 6.00"

Reference source: ChEMBL document CHEMBL4038268
